Measured values drawn from paper PMC10287695 for this set.

LD50 ex vivo VERO: recorded values
test system: Vero cells; test: Cytotoxicity in mammalian cells (Cell Titer Glo); format: cell-based; conditions: African green monkey, 24 h
Marks after values point to notes of the source that are not given here.

Guide cases for LD50 ex vivo VERO, answers given:
INSERT INTO assay_data (molecule, valuereported) VALUES
  ('CC1C(NCc2cn(C3OCC(O)C(O)C3O)c3ccccc23)CC2CC1C2(C)C (stereo not drawn)', '>50^a µM'),
  ('Cc1oc(C2CCCCC2)nc1CN[C@@H]1C[C@@H]2C[C@H]([C@H]1C)C2(C)C', '>50^a µM');

# evaluate next
For reference, reported LD50 ex vivo VERO for C[C@@H]1[C@H]2C[C@@H](C[C@H]1NCc1nc3ccccc3n1C1CCCCCC1)C2(C)C stands at 32.7 ± 2.99 µM
